- experimentalSystem: Growth hormone secretagogue receptor type 1 (Homo sapiens); also: assay procedure not described here
- Sequence (Q92847 whole entry): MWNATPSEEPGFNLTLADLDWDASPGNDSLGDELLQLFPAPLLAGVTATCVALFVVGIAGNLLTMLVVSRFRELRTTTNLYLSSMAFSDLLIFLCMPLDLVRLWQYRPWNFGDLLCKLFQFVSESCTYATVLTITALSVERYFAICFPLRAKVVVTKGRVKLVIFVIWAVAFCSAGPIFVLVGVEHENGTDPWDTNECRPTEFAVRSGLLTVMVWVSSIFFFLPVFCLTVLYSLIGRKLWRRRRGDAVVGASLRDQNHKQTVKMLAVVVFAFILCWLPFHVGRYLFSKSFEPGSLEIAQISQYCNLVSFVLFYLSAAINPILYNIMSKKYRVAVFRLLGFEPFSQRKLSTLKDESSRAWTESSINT
assayReadout: AC50

                                   compound                        experimentalsystem   result
0  C#C[C@]1(O)CC[C@H]2[C@@H]3[C@H](C)CC4=C(CCC(=O)C4)[C@H]3CC[C@@]21C  Growth hormone secretagogue receptor type 1 (Homo sapiens)  > 30 µM
1  COc1ccc(C(=O)Nc2ccccc2CCC2CCCCN2C)cc1 (centres undefined) [ENCAINIDE]  Growth hormone secretagogue receptor type 1 (Homo sapiens)  > 30 µM
2  O=[N+]([O-])c1cn2c(n1)OC[C@@H](OCc1ccc(OC(F)(F)F)cc1)C2  Growth hormone secretagogue receptor type 1 (Homo sapiens)  > 30 µM
3  CC(C)=CCC/C(C)=C/C=C/C(C)=C/C=C/C(C)=C/C=C/C=C(C)/C=C/C=C(C)/C=C/C=C(\C)CCC=C(C)C  Growth hormone secretagogue receptor type 1 (Homo sapiens)  > 30 µM
4     NS(=O)(=O)Cc1noc2ccccc12 [ZONISAMIDE]  Growth hormone secretagogue receptor type 1 (Homo sapiens)  > 10 µM
5     CNS(=O)(=O)Cc1ccc2[nH]cc(CCN(C)C)c2c1  Growth hormone secretagogue receptor type 1 (Homo sapiens)  > 30 µM
6  CC(C)(C)NCC(O)COc1cccc2c1CCC(=O)N2 (centres undefined)  Growth hormone secretagogue receptor type 1 (Homo sapiens)  > 10 µM
7  CC(C)OC(=O)CCC/C=C\C[C@@H]1[C@@H](CC[C@@H](O)CCc2ccccc2)[C@H](O)C[C@@H]1O  Growth hormone secretagogue receptor type 1 (Homo sapiens)  > 30 µM

Here is another compound to look at.
Request: Which AC50 is reported with Growth hormone secretagogue receptor type 1 (Homo sapiens) for this entry: C=CCC1(C(C)CC)C(=O)NC(=O)NC1=O (centres undefined) ?
Result: > 10 µM
